tested.system: T1, NECAP1 PHear (1-133) R32D (UniProt Q8NC96 1-133, R32D)
T1 sequence: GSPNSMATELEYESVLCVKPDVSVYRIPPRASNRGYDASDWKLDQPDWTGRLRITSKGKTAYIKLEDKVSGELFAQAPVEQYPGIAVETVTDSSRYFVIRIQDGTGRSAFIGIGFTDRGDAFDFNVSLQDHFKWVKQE
procedure.details: ITC
Square brackets hold non-standard residues; d marks the D form. Ends that are not written are not given here. pT = C[C@@H](OP(=O)(O)O)[C@H](N)C(=O)O
measure.name: Kd (µM)
Unit µM implied. Number only.

What the record says about SQITSQV[pT]GQIGWRR (also called Peptide μ2linker Phos; phosphorylated μ2 peptide; source: synthetic peptide (Genscript)) [T156-phosphorylated μ2 linker peptide (residues 149–163)] : Kd is 126
